- assay_system: Gal6S(b1-4)Glc
- assay_overview: glycan array binding signal (z-score within array); higher = stronger binding
- run_parameters: glycan notation: IUPAC condensed, linker removed
About 410 targets per protein were measured; listed, in parts, are those with the strongest signals and a random draw of the rest.
parameter_measured: glycan array binding signal (z-score)
Numbers only.

Please review the entries below; each comes with its answer.
CIH1 (Colletotrichum higginsianum) (protein) LPQATPTTPTPTSASAAATISATSSPTCSPGPVIDYTVVSGDTLTIISQRFSSGICNIADASGITNPNFLSLGQVLQVPTYVCTPDNTSCLAKEGSDTCVEGGPATHTIVAGDTFFLVAQSLGLDVNALLAANEGVDPLLLQIGDVINIPVC	-0.079
SfaEH (Escherichia coli), Q1RDG5 (protein) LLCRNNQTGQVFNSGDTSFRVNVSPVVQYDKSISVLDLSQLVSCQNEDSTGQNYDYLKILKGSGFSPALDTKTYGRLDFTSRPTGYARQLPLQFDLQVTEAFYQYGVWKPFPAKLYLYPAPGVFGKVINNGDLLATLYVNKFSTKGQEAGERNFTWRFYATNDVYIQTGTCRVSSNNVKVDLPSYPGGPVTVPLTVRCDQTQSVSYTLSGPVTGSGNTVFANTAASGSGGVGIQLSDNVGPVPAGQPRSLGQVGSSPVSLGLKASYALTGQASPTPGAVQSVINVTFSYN	-0.148

Task: Need glycan array binding signal (z-score) of Clone646PsrP (Streptococcus pneumoniae) (protein) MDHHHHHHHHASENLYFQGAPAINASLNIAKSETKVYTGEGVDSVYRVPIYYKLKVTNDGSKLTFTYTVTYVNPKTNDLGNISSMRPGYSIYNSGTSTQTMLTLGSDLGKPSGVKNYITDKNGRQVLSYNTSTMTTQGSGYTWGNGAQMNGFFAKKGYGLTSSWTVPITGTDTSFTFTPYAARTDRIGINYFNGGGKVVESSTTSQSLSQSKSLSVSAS , thanks.
Result: -0.221
